# Test system: OVCAR-5 ovarian
# Protocol details: NCI tumour cell line growth inhibition, 48 h
Recorded TGI by entry
Measured quantity: TGI (µM)

Compound	Subject of test	Unit spec	Modifier sign	Observed measurement
Cn1c(=O)c2nc(N3CCOCC3)cnc2n(C)c1=O	OVCAR-5 ovarian	µM	>	100
CCOC(=O)/C=C(\C(=O)OCC)n1ccc(=O)n(Cc2cnnn2COCCOC(C)=O)c1=O	OVCAR-5 ovarian	µM	=	32
O=C(CCl)Nc1ccc2c(c1)C(=O)c1ccccc1C2=O	OVCAR-5 ovarian	µM	=	6.89
COc1ccc(N2C(=O)C3CC(c4ccc(C)cc4)c4c([nH]c5ccccc45)C3C2=O)cc1 (stereo not given)	OVCAR-5 ovarian	µM	>	100
CCC(Cc1cnc2nc(N)nc(N)c2n1)c1ccc(C(=O)NC(CCC(=O)O)C(=O)O)cc1 (stereo not given)	OVCAR-5 ovarian	µM	>	100
COc1ccc(OC)c(NC(=O)C2=C(C)NC(C)=C(C(=O)Nc3cc(OC)ccc3OC)C2c2ccco2)c1	OVCAR-5 ovarian	µM	>	100
C=CCCC1CCCNC1=S (stereo not given)	OVCAR-5 ovarian	µM	>	100
O=C1C=CC(=O)c2c(O)c(NCCCN3CCOCC3)c(Cl)c(O)c21	OVCAR-5 ovarian	µM	=	3.1
COc1cc(C2=NNC(c3ccc(N(C)C)cc3)C2)cc(OC)c1OC (stereo not given)	OVCAR-5 ovarian	µM	>	100
Cc1nnc(N)nc1C/C=C/C(Sc1ccc(Cl)cc1)c1ccccc1 (stereo not given)	OVCAR-5 ovarian	µM	=	23

====

# Test system: HOP-92 NSCLC
# Protocol details: NCI tumour cell line growth inhibition, 48 h
Measured quantity: TGI (µM)

Molecule	Subject of test	Measured quantity	Modifier sign	Observed measurement
COC(=O)C(CC(=O)c1ccccc1)c1ccccc1NC(C)=O (centres undefined)	HOP-92 NSCLC	TGI	>	100
COc1ccc(Nc2nccc(Nc3ccc4[nH]ncc4c3)n2)cc1	HOP-92 NSCLC	TGI	=	12.9
COc1cc(C=O)cc(/C=N/N=C/c2ccccc2O)c1O	HOP-92 NSCLC	TGI	=	39.8
COc1cc2cccc(N=Cc3ccccc3Cl)c2cc1OC	HOP-92 NSCLC	TGI	>	100
OCCN1c2ccccc2Sc2ccccc21	HOP-92 NSCLC	TGI	>	10
O=C(CCl)Nc1ccc2c(c1)C(=O)c1ccccc1C2=O	HOP-92 NSCLC	TGI	=	9.73
COC(=O)c1cc(-c2ccc(OC)c(OC)c2)oc1-c1ccc(OC)c(OC)c1	HOP-92 NSCLC	TGI	=	71.4
C=CCNC(=O)N1CC(C)C(=O)Nc2ccccc21 (centres undefined)	HOP-92 NSCLC	TGI	>	100
Cc1c2ccccc2cc2nc3ccccc3n12	HOP-92 NSCLC	TGI	>	10

====

Recorded TGI by entry
# Test system: BT-549 breast
# Protocol details: NCI tumour cell line growth inhibition, 48 h
Measured quantity: TGI

Molecule	Observed measurement
COc1ccc(-c2cc(-c3ccccc3)nc(/N=C\c3ccccc3)n2)c(O)c1	> 100 µM
OCCN1c2ccccc2Sc2ccccc21	> 10 µM
Cc1cc(NN)nc2n[nH]c(N)c12	> 100 µM
N#CCCN(CCC#N)CCN(CCN(CCC#N)CCC#N)CCN(CCC#N)CCC#N	> 100 µM
COc1cc2c(c(OC)c1OC)-c1cccc(=O)cc1C(NC(C)=O)CC2 (stereo not given)	> 100 µM
